Taken from patent US11254745.

# targetOrTestSystem: T1, extracellular domain of hCD4 fused with a histidine tag (hCD4-HisTag) (human, UniProt P01730 26-396)
# T1 construct: extracellular domain; also called human CD4-HisTag; not shown: histidine tag
# protocolDescription: Biacore T200 SPR, antibody captured on Protein A, CD4-HisTag analyte, 1:1 fit, 25 C
# note: boundary value 0.0009 s⁻¹ maps to no (0); koff below it maps to yes (1)

binder	class
Chimeric 2B6 anti-CD4 antibody (antibody, human IgG1, kappa, V domains shown) VH: EVQLQESGPSLVKPSQTLSLTCSVTGDSITSGYWNWIRKFPGHKLEFLGYISFADTTNYNPSLKSRVSITRDTSKNQFDLQLKSVTTEDTATYHCARDDYGYYAMDYWGQGISVTVSS VL: DIHLTQTTSSLSASLGDRVTIICRASQDIDNYLNWYQLKPDGTLKLLIYYTSRLHSGVPSRFSGSGSGTEYSLTISNLEREDVATYFCQQGNTLPTFGAGTKLELKR	yes (1)
Chimeric 11E12 anti-CD4 antibody (antibody, human IgG1, kappa, V domains shown) VH: EVQLEESGPSLVKPSQTLSLTCSVTGDSITSSYWNWIRKFPGHKLEFLGYISFADTTNYNPSLKSRISITRDTSKNQFDLQLKSVTTEDTATYYCARDDFGYYAMDYWGQGISVTVSS VL: DIYVTQTTSSLSASLGDRVTIICRASQDINNYLNWYQLKPDGTLKLLIYYTSRLHSGVPSRFGGSGSGTEYSLTISNLEQEDVATYFCQQGNTLPTFGAGTKLELKR	no (0)
Chimeric 33E12 anti-CD4 antibody (antibody, human IgG1, kappa, V domains shown) VH: DVQLQESGPGLVKPSQSLSLTCTVTGYSITSDYAWNWIRQFPGNKLEWMGYISYSGITSYNPSLKSRFSITRDTSKNQFFLQLNSVTTEDTATYYCARLDSSGYGAMDYWGQGTSVTVSS VL: DIVLTQSPASLPVSLGQRATISCRASQSVSTSSYSYMHWYQQKPGQPPKLLIRYASNLESGVPARFSGSGSGTDFTLNIHPVEEEDTATYYCQHSWDFPLTFGAGTKLELKR	no (0)
29B7 humanized anti-CD4 antibody (antibody, V domains shown, Expressed as heavy and light chains in Freestyle 293 cells; The description says only that humanized antibodies may have human IgG1 and human kappa constant regions; also called Humanized 29B7) VH: QVQLVQSGAEVKKPGASVKVSCKASGDSLNTHWMHWVRQAPGQRLEWIGYINPYTGSGEYSQKFKGRATLTADISASTAYMELSSLRSEDTAVYYCAYDSTGAMDYWGQGTLVTVSS VL: DIQMTQSPSSLSASVGDRVTITCKASQDINRYLSWFQQKPGKAPKTPIYRADRSVDGVPSRFSGSGSGQDYTLTISSLQPEDFATYYCQQYDEFPYTFGQGTKLEIK	yes (1)
MT412 humanized anti-CD4 antibody (antibody, V domains shown, Expressed as heavy and light chains in Freestyle 293 cells; The description says only that humanized antibodies may have human IgG1 and human kappa constant regions; also called Humanized MT412) VH: QIQLVQSGSELKKPGASVKVSCKASGYTFTDYSMHWVRQAPGQGLEWMGWINTETGEPTYADDFKGRFVFSLDTSVSTAYLQISSLKAEDTAVYYCAREDYYGHDGFLYWGQGTLVTVSS VL: DIQMTQSPSFLSASVGDRVTITCKASQDVVTTVAWYQQKPGKAPKLLIYWASLRHTGVPSRFSGSGSGTEFTLTISSLQPEDFATYFCQQYSSYPYTFGQGTKLEIKR	no (0)
Chimeric MT412 anti-CD4 antibody (antibody, human IgG1, kappa, V domains shown) VH: QIQLVQSGPELKKPGETVKISCKASGYTFTDYSMHWVKQAPGKDLKWMGWINTETGEPTYADDFKGRFAFSLETSASTAYLQINNLKNEDTATYFCAREDYYGHDGFLYWGQGTLVTVSS VL: DIVMTQSHKFMSTSVGDRVSITCKASQDVVTTVAWYQQKPGQSPKLLIYWASLRHTGVPDRFTGSGSGTDFTLTISNVQFEDLADYFCQQYSSYPYTFGGGTKLEIKR	no (0)
